Record set of IC50 for target or system IGF1R tyrosine kinase (Homo sapiens).

Use the examples below as a reference point.
# Molecule, Readout Kind, Result Value
measured = [
    ("Cc1ccc(SC[C@H](O)CNc2cc[nH]c(=O)c2-c2nc3cc4c(cc3[nH]2)C(=O)N(C2CCN(C)CC2)C4=O)c(C)c1 [compound 79]", "IC50", "0.5 to 5 µM"),
    ("O=C1c2cc3nc(-c4c(NC[C@@H](O)c5cccc(Cl)c5)cc[nH]c4=O)[nH]c3cc2C(=O)N1CCCN1CCOCC1 [compound 12]", "IC50", "> 15 µM"),
    ("COCCN1CCC(CN2C(=O)c3cc4nc(-c5c(NC[C@@H](O)c6cccc(Cl)c6)cc[nH]c5=O)[nH]c4cc3C2=O)CC1 [compound 24]", "IC50", "< 0.5 µM"),
]

Query: GET /values?readout=IC50&system=IGF1R tyrosine kinase (Homo sapiens)&item= CN1CCC(N2C(=O)c3cc4nc(-c5c(NC[C@@H](O)COc6cccc(C#N)c6)ccnc5O)[nH]c4cc3C2=O)CC1 [compound 52]
Result: < 0.5 µM

Query: GET /values?readout=IC50&system=IGF1R tyrosine kinase (Homo sapiens)&item= O=C1c2cc3nc(-c4c(NC[C@@H](O)c5cccc(Cl)c5)cc[nH]c4=O)[nH]c3cc2C(=O)N1CCc1ccncc1 [compound 28]
Result: > 15 µM

Query: GET /values?readout=IC50&system=IGF1R tyrosine kinase (Homo sapiens)&item= Cc1cc(C)c(OC[C@H](O)CNc2cc[nH]c(=O)c2-c2nc3cc4c(cc3[nH]2)C(=O)N(C2CCN(C)CC2)C4=O)c(CS(C)(=O)=O)c1 [compound 84]
Result: 0.5 to 5 µM

====

pIC50: −log10 of the molar value.
Record set of pIC50 for target or system Alk (Homo sapiens, UniProt Q9UM73).

Query: GET /values?readout=pIC50&system=Alk (Homo sapiens, UniProt Q9UM73)&item= "Cc1ccc(OC[C@@H](O)CNc2cc[nH]c(=O)c2-c2nc3cc4c(cc3[nH]2)C(=O)N([C@H]2CCN(C)C2)C4=O)c(C)c1"
Result: 5.30 to 6.30

Query: GET /values?readout=pIC50&system=Alk (Homo sapiens, UniProt Q9UM73)&item= "Cc1c(Cl)cccc1OC[C@H](O)CNc1cc[nH]c(=O)c1-c1nc2cc3c(cc2[nH]1)C(=O)N(C1CCN(C)CC1)C3"
Result: 5.30 to 6.30

Query: GET /values?readout=pIC50&system=Alk (Homo sapiens, UniProt Q9UM73)&item= "CN1CCC(N2C(=O)c3cc4nc(-c5c(NC[C@@H](O)COc6cccc(Br)c6)ccnc5O)[nH]c4cc3C2=O)CC1"
Result: 5.30 to 6.30

====

System: H929 (multiple myeloma)
Assay Explanation: Cell proliferation inhibition, Cell Titer-Glo, H929
Assay type: cell-based
Particulars: Homo sapiens, NCI-H929; cell proliferation assay, H929 cells
pIC50: −log10 of the molar value.
Reported pIC50 values for a set of molecules

# Compound String, pIC50
data = [
    ("Cc1ccc(OC[C@H](O)CNc2cc[nH]c(=O)c2-c2nc3cc4c(cc3[nH]2)C(=O)N(C2CCN(C)CC2)C4=O)c(C)c1", "5.30 to 6.30"),
    ("CN1CCC(N2Cc3cc4nc(-c5c(NC[C@@H](O)COc6cc(C(F)(F)F)ccc6Cl)cc[nH]c5=O)[nH]c4cc3C2=O)CC1", "4.82 to 5.30"),
    ("O=C1c2cc3nc(-c4c(NC[C@@H](O)COc5c(F)ccc(Cl)c5F)cc[nH]c4=O)[nH]c3cc2C(=O)N1C1CCN(CCCO)CC1", "< 4.82"),
    ("CN1CCC(N2C(=O)c3cc4nc(-c5c(NC[C@@H](O)COc6cccc(C(F)(F)F)c6)cc[nH]c5=O)[nH]c4cc3C2=O)CC1", "4.82 to 5.30"),
    ("CCc1cc(C)ccc1OC[C@H](O)CNc1cc[nH]c(=O)c1-c1nc2cc3c(cc2[nH]1)CN(C1CCN(C)CC1)C3=O", "> 6.30"),
]

--- query ---
Query: GET /values?readout=pIC50&system=H929 (multiple myeloma)&item= "Cc1ccc(OC[C@H](O)CNc2cc[nH]c(=O)c2-c2nc3cc4c(cc3[nH]2)C(=O)N(CC2CCN(CCO)CC2)C4=O)c(C)c1"
Result: < 4.82

====

Tested on: KMS18
Assay Explanation: Cell proliferation inhibition, MTT assay, KMS18
Format: cell-based
Particulars: Homo sapiens, 72 h, KMS18 multiple myeloma cells, 3-day proliferation
Description: IGF1R and other tyrosine kinase inhibitors can inhibit the proliferation of certain cancer cell lines indicating their possible therapeutic utility for treating the corresponding cancer types. […] The plated cells are mixed with the Cell Titer-Glo developing reagent and counted in a luminescence multiwell plate reader according to the standard manufacturer's protocol to generate IC50 curves for cell proliferation inhibition. […]
pIC50: −log10 of the molar value.
Readout Kind: pIC50

# Compound, pIC50
measured = [
    ("Cc1ccc(OCC(=O)CNc2cc[nH]c(=O)c2-c2nc3cc4c(cc3[nH]2)CN(CCCN2CCCC2)C4=O)c(C)c1 [drawing 847]", "4.70 to 5.30"),
    ("CCc1cc2c(cc1OCC(=O)CNc1cc[nH]c(=O)c1-c1nc3cc4c(cc3[nH]1)C(=O)N(C1CCN(C)CC1)C4)OCO2 [drawing 849]", "5.30 to 6.00"),
]

Query: GET /values?readout=pIC50&system=KMS18&item= Cc1ccc(OCC(=O)CNc2cc[nH]c(=O)c2-c2nc3cc4c(cc3[nH]2)CN(C2CCN(C)CC2)C4=O)c(C)c1 [drawing 845]
Result: 5.30 to 6.00

Query: GET /values?readout=pIC50&system=KMS18&item= CN1CCC(N2Cc3cc4[nH]c(-c5c(NCC(=O)COc6ccccc6Br)cc[nH]c5=O)nc4cc3C2=O)CC1 [drawing 848]
Result: 6.00 to 6.30

Query: GET /values?readout=pIC50&system=KMS18&item= COc1ccc(OCC(=O)CNc2cc[nH]c(=O)c2-c2nc3cc4c(cc3[nH]2)C(=O)N(C2CCN(C)CC2)C4)c(Cl)c1 [drawing 850]
Result: 5.30 to 6.00

====

Reported IC50 values for a set of compounds
Test system: CPM2
Assay Explanation: Cell proliferation inhibition, MTT assay, CPM2
Type: cell-based
Particulars: Homo sapiens, Multiple myeloma cell, 72 h, CPM2 multiple myeloma cells, 3-day proliferation

Use the examples below as a reference point.
# Compound, Target Desc, IC50
data = [
    ("CCc1cc2c(cc1OCC(=O)CNc1cc[nH]c(=O)c1-c1nc3cc4c(cc3[nH]1)C(=O)N(C1CCN(C)CC1)C4)OCO2 [drawing 842]", "CPM2", "1 to 5 µM"),
    ("COc1ccc(OCC(=O)CNc2cc[nH]c(=O)c2-c2nc3cc4c(cc3[nH]2)C(=O)N(C2CCN(C)CC2)C4)c(Cl)c1 [drawing 843]", "CPM2", "1 to 5 µM"),
    ("CN1CCC(N2Cc3cc4[nH]c(-c5c(NCC(=O)COc6ccccc6Br)cc[nH]c5=O)nc4cc3C2=O)CC1 [drawing 841]", "CPM2", "1 to 5 µM"),
    ("Cc1ccc(OCC(=O)CNc2cc[nH]c(=O)c2-c2nc3cc4c(cc3[nH]2)CN(C2CCN(C)CC2)C4=O)c(C)c1 [drawing 838]", "CPM2", "1 to 5 µM"),
]

Query: GET /values?readout=IC50&system=CPM2&item= Cc1ccc(OCC(=O)CNc2cc[nH]c(=O)c2-c2nc3cc4c(cc3[nH]2)CN(CCCN2CCCC2)C4=O)c(C)c1 [drawing 840]
Result: 5 to 20 µM

====

Target Desc: Jak2 (Homo sapiens, UniProt O60674)
Construct: 6×His- or GST-tagged kinase domain fragments of the corresponding RTKs expressed in baculovirus system; host or cells: baculovirus system
Sequence (O60674 849-1124 limits assumed, species assumed): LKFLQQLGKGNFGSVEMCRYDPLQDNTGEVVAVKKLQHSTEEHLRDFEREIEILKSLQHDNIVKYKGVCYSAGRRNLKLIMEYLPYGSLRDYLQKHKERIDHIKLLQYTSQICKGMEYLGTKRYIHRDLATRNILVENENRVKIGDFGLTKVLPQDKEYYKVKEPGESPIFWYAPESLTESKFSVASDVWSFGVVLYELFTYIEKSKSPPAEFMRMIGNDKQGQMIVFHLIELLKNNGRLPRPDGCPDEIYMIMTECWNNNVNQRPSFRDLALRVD
Assay Explanation: Tyrosine kinase assay (Kinase-Glo or AlphaScreen), Jak2
Particulars: biochemical tyrosine kinase assay
pIC50: −log10 of the molar value.
Reported pIC50 values for a set of molecules

Use the examples below as a reference point.
# Molecule, pIC50
records = [
    ("CN1CCC(N2Cc3cc4nc(-c5c(NC[C@@H](O)COc6c(F)ccc(F)c6Cl)cc[nH]c5=O)[nH]c4cc3C2=O)CC1", "> 6.30"),
    ("O=C1NC(=O)c2cc3[nH]c(-c4c(NC[C@@H](O)c5cccc(Cl)c5)cc[nH]c4=O)nc3cc21", "4.82 to 5.30"),
    ("CN1CCC(N2C(=O)c3cc4nc(-c5c(NC[C@@H](O)COc6cccnc6)ccnc5O)[nH]c4cc3C2=O)CC1", "5.30 to 6.30"),
    ("Cc1ccc(OC[C@H](O)CNc2cc[nH]c(=O)c2-c2nc3cc4c(cc3[nH]2)C(=O)N(CCCN2CCCC2)C4=O)c2c1CCC2", "5.30 to 6.30"),
    ("COCCN1CCC(CN2C(=O)c3cc4nc(-c5c(NC[C@@H](O)c6cccc(Cl)c6)cc[nH]c5=O)[nH]c4cc3C2=O)CC1", "5.30 to 6.30"),
    ("CN1CCC(N2C(=O)c3cc4nc(-c5c(NCC(O)c6ccncc6)cc[nH]c5=O)[nH]c4cc3C2=O)CC1 (stereo not shown)", "5.30 to 6.30"),
]

Query: I'd like to know its pIC50. The molecule in question is "O=C1c2cc3nc(-c4c(NC[C@@H](O)c5cccc(Cl)c5)cc[nH]c4=O)[nH]c3cc2C(=O)N1[C@@H]1CN2CCC1CC2"
Result: 5.30 to 6.30
